biological target: IκB-α kinase; test: IκB-α kinase inhibition, in vitro kinase assay
observed-property: log10 IC50 (log10 of the value in nM)
Form field - Quantity: IC50; Unit: nM; Scale: log10

For orientation, consider the following solved cases.
INSERT INTO measurements (compound, val) VALUES
  ('CC(C)c1n[nH]c2c(Nc3cccc(Cl)c3)nc(NC3CCC(N)CC3)nc12 (stereo not shown)', 1.08),
  ('CC(=O)c1cccc(CNc2nc(N[C@@H](CO)C(C)C)nc3c(C(C)C)n[nH]c23)c1', 0.70);

For every item in the list below, what is its measured log10 IC50?
1. CC(C)c1n[nH]c2c(Nc3ccc(O)c(C(=O)O)c3)nc(N[C@@H](CO)C(C)C)nc12
2. CC(C)c1n[nH]c2c(Nc3ccccc3)nc(N[C@@H](CO)C(C)C)nc12
3. CC(C)c1n[nH]c2c(NCc3cccc(O)c3)nc(N[C@@H](CO)C(C)C)nc12
4. CC(C)c1n[nH]c2c(NCc3c(N)cccc3Cl)nc(N[C@@H](CO)C(C)C)nc12
5. Cc1n[nH]c2c(NCc3ccccc3)nc(NC3CCC(N)CC3)nc12 (stereo not shown)
6. CC(C)c1n[nH]c2c(Nc3cccc(Cl)c3)nc(NC3CCCCC3N)nc12 (stereo not shown)
7. Cc1n[nH]c2c(NCc3ccccc3)nc(N(CCO)CCO)nc12

0.00
0.48
0.60
0.30
1.70
1.08
3.32
